experiment: Cytotoxicity CC50 in Huh7.5 cells; assay type: cell-based; details: human, Huh7.5 cells
quantity-kind: CC50

Sample records with CC50:
# entry-smiles, CC50
data = [
    ("CC(=O)Nc1nc(C)c(-c2ccc(Br)c(S(=O)(=O)NC(C)C)c2)s1", "> 5 µM"),
    ("COc1ccc(-c2sc(NC(=O)C3CCCC3)nc2C)cc1S(=O)(=O)Nc1ccc(CC#N)cc1", "> 20 µM"),
    ("COc1ccc(-c2sc(NC(=O)C3CCCC3)nc2C)cc1S(=O)(=O)Nc1ccc(O)cc1", "> 20 µM"),
    ("COc1ccc(-c2sc(NC(C)=O)nc2C)cc1S(=O)(=O)NCCN1CCOCC1", "> 5 µM"),
    ("CCC(=O)Nc1nc(C)c(-c2ccc(OC)c(S(=O)(=O)Nc3ccc(CC#N)cc3)c2)s1", "> 20 µM"),
]

Consider the compound shown here: CC(=O)Nc1nc(C)c(-c2ccc(Cl)c(S(N)(=O)=O)c2)s1 What is its recorded CC50?
10 µM

Query: CC50; subject: COc1ccc(NS(=O)(=O)c2cc(-c3sc(NC(C)=O)nc3C)ccc2Cl)cc1F
20 µM

Could you share which CC50 value was measured for CC(=O)Nc1nc(C)c(-c2ccc(Cl)c(S(=O)(=O)NC(C)C)c2)s1 ?
> 5 µM

For the compound CC(=O)Nc1nc(C)c(-c2ccc(Cl)c(S(=O)(=O)Nc3ccc(O)cc3)c2)s1 , what CC50 is on record?
9.2 µM

Value lookup for CC50; key = CC(=O)Nc1nc(C)c(-c2ccc(Cl)c(S(=O)(=O)NCCN3CCOCC3)c2)s1
> 5 µM

# lookup: CC50 of CC(=O)Nc1nc(C)c(-c2ccc(Br)c(S(=O)(=O)NCCc3ccc(O)cc3)c2)s1
> 5 µM

I am curious: what CC50 value has been reported for CC(=O)Nc1nc(C)c(-c2ccc(Br)c(S(=O)(=O)NCCN3CCOCC3)c2)s1 ?
5 µM

###

tested on: HCV genotype 2a; experiment: microbe, parasite or virus in culture; type: cell-based; details: Hepatitis C virus, Huh7.5, HCV genotype 2a in Huh7.5 cells, luciferase reporter assay; read-out: 2a EC50
Entries and their EC50 values follow.

Worked cases, answers included:
# compound, EC50
measured = [
    ("COc1cc(C)c(NS(=O)(=O)c2cc(-c3sc(NC(=O)CC4CCCC4)nc3C)ccc2OC)cn1", "200 to 1000 nM"),
    ("COc1cc(C)c(NS(=O)(=O)c2cc(-c3sc(NC4CCCCC4)nc3C)ccc2OC)cn1", "< 200 nM"),
    ("COc1ccc(-c2sc(NC(=O)CCC3CCCC3)nc2C)cc1S(=O)(=O)Nc1cccc(O)c1", "200 to 1000 nM"),
]

Value lookup for EC50; key = COc1ccc(-c2sc(NC(=O)CC3CCCC3)nc2C)cc1S(=O)(=O)Nc1cccc(O)c1
200 to 1000 nM

Reported EC50, compound COc1ccc(-c2sc(NCC3CCCCC3)nc2C)cc1S(=O)(=O)Nc1cnc(F)cc1C : ____
200 to 1000 nM

###

biological target: p110γ (Homo sapiens, UniProt P48736); assay: PI3-kinase p110γ lipid kinase assay; assay type: biochemical; settings: read-out: IC50 PI3K 110g
Sequence (P48736 whole entry, species assumed): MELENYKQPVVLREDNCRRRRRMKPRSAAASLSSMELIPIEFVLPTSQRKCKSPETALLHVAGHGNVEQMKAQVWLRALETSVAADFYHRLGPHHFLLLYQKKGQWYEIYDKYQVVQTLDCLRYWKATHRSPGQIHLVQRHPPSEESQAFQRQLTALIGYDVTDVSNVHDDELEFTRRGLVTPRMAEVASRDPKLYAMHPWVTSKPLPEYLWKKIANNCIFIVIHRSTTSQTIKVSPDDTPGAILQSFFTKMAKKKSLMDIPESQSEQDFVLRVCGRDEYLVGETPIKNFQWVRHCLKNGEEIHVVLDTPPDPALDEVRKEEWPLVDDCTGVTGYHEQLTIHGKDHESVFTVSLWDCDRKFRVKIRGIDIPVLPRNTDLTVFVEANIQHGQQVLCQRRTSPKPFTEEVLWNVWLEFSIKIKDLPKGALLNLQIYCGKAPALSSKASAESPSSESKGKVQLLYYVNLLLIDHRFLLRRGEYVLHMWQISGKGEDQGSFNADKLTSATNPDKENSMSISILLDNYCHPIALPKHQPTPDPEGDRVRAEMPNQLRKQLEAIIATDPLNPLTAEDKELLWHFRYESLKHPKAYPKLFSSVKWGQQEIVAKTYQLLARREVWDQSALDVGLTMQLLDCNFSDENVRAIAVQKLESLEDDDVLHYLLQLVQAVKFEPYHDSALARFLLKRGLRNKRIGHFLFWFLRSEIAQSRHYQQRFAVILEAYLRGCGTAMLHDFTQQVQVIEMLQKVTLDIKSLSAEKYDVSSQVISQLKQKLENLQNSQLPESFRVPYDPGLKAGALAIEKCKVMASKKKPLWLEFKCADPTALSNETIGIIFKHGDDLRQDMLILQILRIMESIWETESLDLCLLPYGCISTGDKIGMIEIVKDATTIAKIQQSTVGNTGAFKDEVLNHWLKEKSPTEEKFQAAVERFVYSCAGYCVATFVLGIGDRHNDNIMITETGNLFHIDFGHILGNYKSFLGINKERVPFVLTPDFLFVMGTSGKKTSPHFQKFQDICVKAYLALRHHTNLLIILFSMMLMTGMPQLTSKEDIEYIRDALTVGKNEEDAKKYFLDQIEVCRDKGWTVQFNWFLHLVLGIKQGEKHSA
pIC50: −log10 of the molar value.
# if value of pIC50 reaches 8, tag YES; if it stays below, tag NO

# entry-smiles, assigned-label
data = [
    ("CC(=O)Nc1nc(C)c(-c2ccc(Br)c(S(=O)(=O)Nc3ccc(CC#N)cc3)c2)s1", "YES"),
    ("COc1ccc(-c2sc(NC(C)=O)nc2C)cc1S(=O)(=O)NCCN1CCOCC1", "NO"),
]

Is pIC50 for CCC(=O)Nc1nc(C)c(-c2ccc(OC)c(S(=O)(=O)Nc3ccc(O)cc3)c2)s1 at or above 8?
NO
